- ASSAY TARGET: Low molecular weight protein-tyrosine phosphatase A (Mycobacterium tuberculosis, UniProt P9WIA1)
- Sequence (P9WIA1 whole entry): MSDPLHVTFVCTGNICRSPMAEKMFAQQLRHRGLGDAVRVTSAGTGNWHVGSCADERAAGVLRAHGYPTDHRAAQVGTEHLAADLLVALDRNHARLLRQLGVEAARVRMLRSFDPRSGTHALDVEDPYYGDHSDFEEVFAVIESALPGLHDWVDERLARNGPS
- ASSAY COMMENT: Inhibition of Mycobacterium tuberculosis PTP-A
MEASUREMENT TYPE: pIC50
The value called pIC50 is obtained by taking minus log10 of the concentration in mol/L.

{"MOLECULE": "CCCCCC1=C/C(=C/c2[nH]c(-c3ccc[nH]3)cc2OC)N=C1C [PRODIGIOSIN]", "pIC50": 5.06}

// query Name the reported pIC50 value associated with the molecule COc1cc(-c2[nH]ccc2Cl)oc1C1=C2N=C3C=C2[C@H](C(C)C)[C@H]1CCCCCCCC3 [ROSEOPHILIN]
// result 5.06

---

- ASSAY TARGET: Low molecular weight protein-tyrosine phosphatase A (Mycobacterium tuberculosis)
- Sequence (P9WIA1 whole entry): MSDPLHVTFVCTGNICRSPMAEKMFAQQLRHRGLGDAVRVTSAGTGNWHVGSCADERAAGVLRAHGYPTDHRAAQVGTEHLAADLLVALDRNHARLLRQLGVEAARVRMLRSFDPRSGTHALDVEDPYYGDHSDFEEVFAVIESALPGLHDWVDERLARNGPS
# pKi per record follows
The value called pKi is obtained by taking minus log10 of the concentration in mol/L.

Below, each entry is followed by its recorded pKi result.
{"SMILES": "COc1ccc(C(=O)/C=C/c2ccc(OCc3ccccc3)c(OC)c2)c(OC)c1", "pKi": 4.92}
{"SMILES": "O=C(/C=C/c1ccc2ccccc2c1)c1ccc(Cl)s1", "pKi": 4.64}

Next:
// query Name the reported pKi value associated with the compound O=C(/C=C/c1ccc2c(c1)OCO2)c1cccc([N+](=O)[O-])c1
// result 4.54

---

- ASSAY TARGET: Low molecular weight protein-tyrosine phosphatase A (Mycobacterium tuberculosis) (UniProt P9WIA1)
- ASSAY COMMENT: Inhibition of Mycobacterium tuberculosis PTP-A using p-nitrophenyl phosphate as substrate at 25 uM measured for 10 mins by spectrofluorimetry
MEASUREMENT TYPE: inhibition (%)
Answer with a number only, understood to be in %.

{"SMILES": "O=C(/C=C/c1ccc2ccccc2c1)c1ccc2c(c1)OCO2", "UNIT OF MEASURE": "%", "inhibition": 12}

// query Name the reported inhibition value associated with the molecule O=C(/C=C/c1ccc2ccccc2c1)c1ccc[nH]1
// result 16

// query Name the reported inhibition value associated with the molecule O=C(/C=C/c1ccccc1F)c1ccc2ccccc2c1
// result 23

---

- ASSAY TARGET: Phosphotyrosine-protein phosphatase PTPB (Mycobacterium tuberculosis) (UniProt P96830)
- Sequence (P96830 as listed by the source): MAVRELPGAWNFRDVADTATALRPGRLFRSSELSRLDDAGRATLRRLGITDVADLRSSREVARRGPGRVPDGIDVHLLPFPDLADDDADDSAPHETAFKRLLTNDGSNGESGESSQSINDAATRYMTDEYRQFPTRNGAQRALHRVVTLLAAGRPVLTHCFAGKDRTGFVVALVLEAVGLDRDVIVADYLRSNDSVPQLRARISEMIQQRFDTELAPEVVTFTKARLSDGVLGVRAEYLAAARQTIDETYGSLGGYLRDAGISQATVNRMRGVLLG
- ASSAY COMMENT: Inhibition of Mycobacterium tuberculosis PTP-B using p-nitrophenyl phosphate as substrate at 25 uM measured for 10 mins by spectrofluorimetry
# inhibition per record follows
Answer with a number only, understood to be in %.

{"SMILES": "O=C(/C=C/c1ccc(Br)cc1)c1ccc2c(c1)OCO2", "MEASUREMENT TYPE": "inhibition", "UNIT OF MEASURE": "%", "ASSAY RESULT": 9}
{"SMILES": "O=C(/C=C/c1ccc2ccccc2c1)c1ccc(Br)cc1", "MEASUREMENT TYPE": "inhibition", "UNIT OF MEASURE": "%", "ASSAY RESULT": 42}
{"SMILES": "O=C(/C=C/c1cccc([N+](=O)[O-])c1)c1ccc2ccccc2c1", "MEASUREMENT TYPE": "inhibition", "UNIT OF MEASURE": "%", "ASSAY RESULT": 7}

// query Name the reported inhibition value associated with the compound COc1ccc(/C=C/C(=O)c2ccc3ccccc3c2)c(OC)c1OC
// result 0

// query Name the reported inhibition value associated with the compound O=C(/C=C/c1ccc2ccccc2c1)c1ccc(Cl)s1
// result 49

// query Name the reported inhibition value associated with the compound COc1cc(OC)c(C(=O)/C=C/c2ccc3c(c2)OCO3)cc1OC
// result 29

// query Name the reported inhibition value associated with the compound O=C(/C=C/c1ccccc1Cl)c1ccc2ccccc2c1
// result 13

// query Name the reported inhibition value associated with the compound O=C(/C=C/c1ccc(Cl)cc1)c1ccc2ccccc2c1
// result 27

// query Name the reported inhibition value associated with the compound O=C(/C=C/c1ccc(-c2cc(C(F)(F)F)ccc2Cl)o1)c1ccc2c(c1)OCO2
// result 16

// query Name the reported inhibition value associated with the compound Cc1ccc(/C=C/C(=O)c2ccc3ccccc3c2)cc1
// result 28

// query Name the reported inhibition value associated with the compound O=C(/C=C/c1ccc2c(c1)OCO2)c1ccc2c(c1)OCO2
// result 0

---

- ASSAY TARGET: UniProtKB P9WIA1
- Sequence (whole entry): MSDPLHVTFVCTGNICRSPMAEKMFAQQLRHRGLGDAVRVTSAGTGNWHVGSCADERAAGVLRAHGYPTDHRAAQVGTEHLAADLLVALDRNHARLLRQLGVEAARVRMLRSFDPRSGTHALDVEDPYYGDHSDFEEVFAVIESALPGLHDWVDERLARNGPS
- ASSAY COMMENT: Inhibition of Mycobacterium tuberculosis PTP-A using p-nitrophenyl phosphate as substrate at 25 uM measured for 10 mins by spectrofluorimetry
Use 9% as the dividing line for inhibition, with the line itself on the 1 (yes) side and lower values as 0 (no).

// below: answered molecules
{"SMILES": "O=C(/C=C/c1cc(Cl)cc(Cl)c1)c1ccc2ccccc2c1", "CATEGORY": "1 (yes)"}
{"SMILES": "O=C(/C=C/c1ccc(C(F)(F)F)cc1)c1ccc2ccccc2c1", "CATEGORY": "1 (yes)"}
{"SMILES": "O=C(/C=C/c1cccc([N+](=O)[O-])c1)c1ccc2ccccc2c1", "CATEGORY": "1 (yes)"}
{"SMILES": "O=C(/C=C/c1ccc(F)cc1)c1ccc2ccccc2c1", "CATEGORY": "1 (yes)"}

Let's switch to this molecule now.
// query Decide: inhibition of COc1cc(OC)c(C(=O)/C=C/c2ccc3c(c2)OCO3)cc1OC >= 9%?
// result 0 (no)

---

- ASSAY TARGET: Phosphotyrosine-protein phosphatase PTPB (Mycobacterium tuberculosis)
- ASSAY COMMENT: Inhibition of Mycobacterium tuberculosis PTP-B using p-nitrophenyl phosphate as substrate at 25 uM measured for 10 mins by spectrofluorimetry
# inhibition per record follows
Answer with a number only, understood to be in %.

Below, each entry is followed by its recorded inhibition result.
{"SMILES": "CCCCOc1ccc(/C=C/C(=O)c2ccc3c(c2)OCO3)cc1", "inhibition [%]": 0}
{"SMILES": "COc1ccc(OC)c(/C=C/C(=O)c2ccc3c(c2)OCO3)c1", "inhibition [%]": 0}
{"SMILES": "O=C(/C=C/c1ccc(-c2ccccc2[N+](=O)[O-])o1)c1ccc2ccccc2c1", "inhibition [%]": 7}
{"SMILES": "O=C(/C=C/c1ccc2ccccc2c1)c1cc(Cl)ccc1Cl", "inhibition [%]": 20}
{"SMILES": "O=C(/C=C/c1c(Cl)cccc1Cl)c1ccc2ccccc2c1", "inhibition [%]": 0}
{"SMILES": "COc1cc(OC)c(OC)cc1/C=C/C(=O)c1ccc2c(c1)OCO2", "inhibition [%]": 19}
{"SMILES": "COc1cccc(/C=C/C(=O)c2ccc3c(c2)OCO3)c1", "inhibition [%]": 0}
{"SMILES": "N#Cc1ccc(/C=C/C(=O)c2ccc3ccccc3c2)cc1", "inhibition [%]": 20}

// query Name the reported inhibition value associated with the compound Cc1ccc(/C=C/C(=O)c2ccc3ccccc3c2)o1
// result 0

// query Name the reported inhibition value associated with the compound O=C(/C=C/c1cccc(C(F)(F)F)c1)c1ccc2c(c1)OCO2
// result 0

// query Name the reported inhibition value associated with the compound COc1cc(/C=C/C(=O)c2ccc3ccccc3c2)ccc1OCc1ccccc1
// result 0

---

# inhibition per record follows
- ASSAY TARGET: Phosphotyrosine-protein phosphatase PTPB (Mycobacterium tuberculosis)
- ASSAY COMMENT: Inhibition of Mycobacterium tuberculosis PTP-B using p-nitrophenyl phosphate as substrate at 25 uM measured for 10 mins by spectrofluorimetry
Answer with a number only, understood to be in %.

Below, each entry is followed by its recorded inhibition result.
{"SMILES": "O=C(/C=C/c1ccc(Cl)c(Cl)c1)c1ccc2c(c1)OCO2", "ASSAY TARGET": "Phosphotyrosine-protein phosphatase PTPB (Mycobacterium tuberculosis)", "UNIT OF MEASURE": "%", "inhibition": 0}
{"SMILES": "COc1cc(/C=C/C(=O)c2ccc3c(c2)OCO3)cc(OC)c1OC", "ASSAY TARGET": "Phosphotyrosine-protein phosphatase PTPB (Mycobacterium tuberculosis)", "UNIT OF MEASURE": "%", "inhibition": 0}
{"SMILES": "O=C(/C=C/c1ccc(Cl)cc1)c1ccc2c(c1)OCO2", "ASSAY TARGET": "Phosphotyrosine-protein phosphatase PTPB (Mycobacterium tuberculosis)", "UNIT OF MEASURE": "%", "inhibition": 0}
{"SMILES": "O=C(/C=C/c1cccc(C(F)(F)F)c1)c1ccc2ccccc2c1", "ASSAY TARGET": "Phosphotyrosine-protein phosphatase PTPB (Mycobacterium tuberculosis)", "UNIT OF MEASURE": "%", "inhibition": 0}
{"SMILES": "CN(C)c1ccc(/C=C/C(=O)c2ccc3c(c2)OCO3)cc1", "ASSAY TARGET": "Phosphotyrosine-protein phosphatase PTPB (Mycobacterium tuberculosis)", "UNIT OF MEASURE": "%", "inhibition": 0}

// query Name the reported inhibition value associated with the compound COc1ccc(C(=O)/C=C/c2ccc(OCc3ccccc3)c(OC)c2)c(OC)c1
// result 0

// query Name the reported inhibition value associated with the compound COc1cc(OC)c(OC)cc1/C=C/C(=O)c1ccc2ccccc2c1
// result 0

// query Name the reported inhibition value associated with the compound O=C(/C=C/c1ccc2ccccc2c1)c1ccc2c(c1)OCO2
// result 15
